# key: entry, value: IC50
System: Leishmania infantum
Assay Overview: WHO-TDR: Leishmaniasis
Type: functional, organism-based, Mus musculus
Assay Setup: Macrophage

Cc1cc2cc(CCNC(=O)C3c4ccccc4Oc4ccccc43)c(O)nc2cc1C :: 0.412 µg/mL
O=S(=O)(CCCOc1ccc(F)cc1)NCc1c(F)cccc1F :: 0.349 µg/mL
O=C(Nc1nc(-c2ccccn2)cs1)C1CCN(S(=O)(=O)c2cccs2)CC1 :: > 13 µg/mL
Cc1noc(C)c1S(=O)(=O)Nc1cccc(-c2csc3nc(C)c(C)c(=O)n23)c1 :: 0.418 µg/mL
O=C(Cc1ccccc1)Nc1nnc(SCC(=O)NC2CCCC2)s1 :: 3.96 µg/mL

Query: Which measured IC50 value corresponds to COc1cc(C)c(Cl)cc1S(=O)(=O)Nc1ccc(Nc2nc(C)cc(N3CCOCC3)n2)cc1 ?
Result: > 15.1 µg/mL

Query: Which measured IC50 value corresponds to N#Cc1ccsc1NC(=O)C(c1ccccc1)c1ccccc1 ?
Result: > 9.55 µg/mL

Query: Which measured IC50 value corresponds to Cc1ccc(NC(=O)CN2CCC(C(=O)NCCc3c[nH]c4ccccc34)CC2)c(C)c1 ?
Result: > 13 µg/mL

Query: Which measured IC50 value corresponds to O=C(NCC1CC(=O)N(c2ccc(Cl)cc2)C1)NC1CCCCC1 (stereo not given) ?
Result: > 10.5 µg/mL

Query: Which measured IC50 value corresponds to COc1cccc(NC(=O)N2CCN(c3ccc(Nc4cc(C)ccn4)nn3)CC2)c1 ?
Result: > 12.6 µg/mL
